List of IC50 values.
# system: Cytochrome P450 2C9 (Homo sapiens, UniProt P11712)
# Sequence (P11712 whole entry): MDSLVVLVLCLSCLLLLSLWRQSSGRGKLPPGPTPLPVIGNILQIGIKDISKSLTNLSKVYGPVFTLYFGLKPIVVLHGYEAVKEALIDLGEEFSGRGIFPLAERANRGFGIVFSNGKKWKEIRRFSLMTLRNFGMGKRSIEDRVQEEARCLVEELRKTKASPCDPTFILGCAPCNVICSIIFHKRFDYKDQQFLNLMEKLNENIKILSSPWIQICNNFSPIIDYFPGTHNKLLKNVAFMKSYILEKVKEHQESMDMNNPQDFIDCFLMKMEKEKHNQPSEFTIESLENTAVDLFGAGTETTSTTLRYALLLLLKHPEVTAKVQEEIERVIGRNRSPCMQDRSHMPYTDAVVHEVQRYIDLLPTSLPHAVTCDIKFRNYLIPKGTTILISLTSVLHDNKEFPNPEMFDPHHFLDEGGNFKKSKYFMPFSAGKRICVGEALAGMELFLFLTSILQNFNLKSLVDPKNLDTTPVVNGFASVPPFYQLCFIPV
# method: Inhibition of human CYP2C9 expressed in HEK293 cells using fluorogenic 3-cyano-7-ethoxycoumarin as preincubated for 30 mins followed by substrate addition measured for 60 mins by fluorescence assay
# Format: ADME, cell-based

INSERT INTO results (compound_smiles, system, recorded_value) VALUES
  ('COc1ccccc1/C=C/C(=O)c1ccc[nH]1', 'Cytochrome P450 2C9 (Homo sapiens, UniProt P11712)', '> 10 µM');

Ask: Entry under review: O=C(/C=C/c1ccc(OC(F)(F)F)cc1)c1ccc[nH]1 . Reported IC50?
Reply: > 20 µM

Ask: What value of IC50 has been reported for the following molecule? O=C(/C=C/c1ccccc1Cl)c1ccc[nH]1
Reply: > 10 µM

----------
# system: Cytochrome P450 2D6 (Homo sapiens)
# Sequence (P10635 whole entry): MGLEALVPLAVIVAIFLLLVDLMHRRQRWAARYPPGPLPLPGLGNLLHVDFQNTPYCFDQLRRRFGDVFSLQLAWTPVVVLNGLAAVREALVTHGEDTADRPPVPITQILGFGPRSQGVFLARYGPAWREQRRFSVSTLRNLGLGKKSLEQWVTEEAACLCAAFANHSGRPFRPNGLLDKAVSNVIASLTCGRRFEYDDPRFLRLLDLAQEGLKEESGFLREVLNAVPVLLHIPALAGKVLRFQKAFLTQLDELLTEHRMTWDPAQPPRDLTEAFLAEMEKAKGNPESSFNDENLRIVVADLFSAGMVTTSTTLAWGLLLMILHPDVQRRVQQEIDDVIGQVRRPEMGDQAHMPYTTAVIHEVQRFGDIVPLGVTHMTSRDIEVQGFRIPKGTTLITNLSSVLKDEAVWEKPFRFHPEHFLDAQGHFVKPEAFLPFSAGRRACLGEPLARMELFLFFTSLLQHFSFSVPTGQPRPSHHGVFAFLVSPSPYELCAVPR
# method: Inhibition of human CYP2D6 bound to yeast microsomal membrane using 7-ethoxy-methyloxy-3-cyanocoumarin as substrate after 10 mins by fluorescence assay
# Format: ADME
Quick list: pIC50 per entry.
As a rule, pIC50 stands for the negative log10 of the concentration, concentration in M.

INSERT INTO results (compound_smiles, recorded_value) VALUES
  ('COc1cccc(/C=C/C(=O)c2ccc[nH]2)c1OC', 4.80),
  ('COc1ccc(/C=C/C(=O)c2ccc[nH]2)c(OC)c1', 4.96),
  ('O=C(O)c1ccc(/C=C/C(=O)c2ccc[nH]2)cc1', 4.74),
  ('COc1ccccc1/C=C/C(=O)c1ccc[nH]1', 4.70);

Ask: I'd like to know its pIC50. The compound in question is COc1ccc(/C=C/C=C/C(=O)c2ccc[nH]2)cc1
Reply: 4.74

----------
# system: Cytochrome P450 2C19 (Homo sapiens, UniProt P33261)
# Sequence (P33261 whole entry): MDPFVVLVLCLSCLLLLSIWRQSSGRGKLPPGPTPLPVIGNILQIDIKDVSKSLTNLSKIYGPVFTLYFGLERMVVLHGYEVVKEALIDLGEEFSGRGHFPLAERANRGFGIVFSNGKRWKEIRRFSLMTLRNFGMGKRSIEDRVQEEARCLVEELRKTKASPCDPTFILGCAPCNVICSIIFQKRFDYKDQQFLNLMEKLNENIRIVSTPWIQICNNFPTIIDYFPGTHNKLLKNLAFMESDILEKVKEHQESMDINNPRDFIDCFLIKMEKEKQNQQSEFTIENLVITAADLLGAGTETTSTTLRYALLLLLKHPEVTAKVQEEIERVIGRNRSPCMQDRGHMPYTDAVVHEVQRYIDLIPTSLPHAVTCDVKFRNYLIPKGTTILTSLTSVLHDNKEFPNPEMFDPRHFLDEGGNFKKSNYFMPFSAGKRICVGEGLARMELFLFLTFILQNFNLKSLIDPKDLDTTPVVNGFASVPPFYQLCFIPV
# method: Inhibition of human CYP2C19 bound to yeast microsomal membrane using 3-cyano-7-ethoxycoumarin as substrate after 10 mins by fluorescence assay
# Format: ADME
observed.property: IC50

INSERT INTO measurements (compound_smiles, recorded_value) VALUES
  ('COc1cc(/C=C/C(=O)c2ccc[nH]2)cc(OC)c1', '> 20 µM'),
  ('COc1cc(/C=C/C(=O)c2ccc[nH]2)cc(OC)c1OC', '> 20 µM'),
  ('O=C(/C=C/c1cc([N+](=O)[O-])ccc1Cl)c1ccc[nH]1', '> 20 µM'),
  ('COc1cccc(OC)c1/C=C/C(=O)c1ccc[nH]1', '> 20 µM'),
  ('COc1ccc(/C=C/C(=O)c2ccc[nH]2)c(OC)c1', '> 20 µM'),
  ('O=C(/C=C/c1c2ccccc2cc2ccccc12)c1ccc[nH]1', '> 20 µM');

Ask: For Cytochrome P450 2C19 (Homo sapiens, UniProt P33261), provide IC50 of COc1ccc(/C=C/C(=O)c2ccc[nH]2)cc1Br please.
Reply: > 20 µM

Ask: Checklist item: IC50 tested on Cytochrome P450 2C19 (Homo sapiens, UniProt P33261), entry CCc1ccc(/C=C/C(=O)c2ccc[nH]2)o1 , value?
Reply: > 20 µM

Ask: # get_value(readout= IC50, system= Cytochrome P450 2C19 (Homo sapiens, UniProt P33261)) for O=C(/C=C/c1cccc(Br)c1)c1ccc[nH]1
Reply: > 20 µM

Ask: State its IC50 on Cytochrome P450 2C19 (Homo sapiens, UniProt P33261): O=C(/C=C/c1cccc(Cl)c1)c1ccc[nH]1
Reply: > 20 µM

Ask: # query: IC50 | item COc1ccccc1/C=C/C(=O)c1ccc[nH]1 | system: Cytochrome P450 2C19 (Homo sapiens, UniProt P33261)
Reply: > 20 µM

----------
Listed compounds paired with reported IC50
# system: Cytochrome P450 2C19 (Homo sapiens)
# method: Inhibition of human CYP2C19 expressed in HEK293 cells using fluorogenic 3-cyano-7-ethoxycoumarin as substrate preincubated for 30 mins followed by substrate addition measured for 60 mins by fluorescence assay
# Format: ADME, cell-based

INSERT INTO results (compound_smiles, system, observed_property, recorded_value) VALUES
  ('O=C(/C=C/c1ccc(OC(F)(F)F)cc1)c1ccc[nH]1', 'Cytochrome P450 2C19 (Homo sapiens)', 'IC50', '> 20 µM');

Ask: Requested read-out: IC50. Entry: O=C(/C=C/c1ccccc1Cl)c1ccc[nH]1
Reply: > 10 µM

Ask: Entry COc1ccccc1/C=C/C(=O)c1ccc[nH]1 : reported IC50 = ?
Reply: > 10 µM

----------
# system: Aryl hydrocarbon receptor (Homo sapiens)
# Sequence (P35869 whole entry): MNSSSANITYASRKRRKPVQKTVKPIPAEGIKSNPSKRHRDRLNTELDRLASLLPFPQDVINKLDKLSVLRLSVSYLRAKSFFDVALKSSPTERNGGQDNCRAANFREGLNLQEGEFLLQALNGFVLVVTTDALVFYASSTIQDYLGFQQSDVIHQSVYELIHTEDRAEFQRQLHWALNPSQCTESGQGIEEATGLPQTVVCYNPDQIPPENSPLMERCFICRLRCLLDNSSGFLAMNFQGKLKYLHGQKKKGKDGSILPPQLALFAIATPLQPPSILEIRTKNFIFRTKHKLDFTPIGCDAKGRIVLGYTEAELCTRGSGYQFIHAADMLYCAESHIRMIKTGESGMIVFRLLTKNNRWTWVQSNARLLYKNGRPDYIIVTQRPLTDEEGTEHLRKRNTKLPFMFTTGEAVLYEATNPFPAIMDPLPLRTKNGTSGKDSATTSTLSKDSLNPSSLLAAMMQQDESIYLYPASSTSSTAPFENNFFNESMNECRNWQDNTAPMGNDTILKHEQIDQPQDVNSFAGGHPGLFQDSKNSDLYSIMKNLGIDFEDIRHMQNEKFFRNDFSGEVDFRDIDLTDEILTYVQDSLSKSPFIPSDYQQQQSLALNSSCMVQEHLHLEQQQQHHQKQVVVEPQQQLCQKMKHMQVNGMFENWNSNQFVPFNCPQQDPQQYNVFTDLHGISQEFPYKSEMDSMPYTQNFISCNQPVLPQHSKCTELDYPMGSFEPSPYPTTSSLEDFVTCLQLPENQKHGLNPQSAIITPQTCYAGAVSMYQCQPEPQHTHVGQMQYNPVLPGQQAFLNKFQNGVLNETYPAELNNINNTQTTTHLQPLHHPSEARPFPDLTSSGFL
# method: Antagonist activity at human AhR expressed in Saccharomyces cerevisiae W303-1A (ATCC 208352) transformed with an episomal plasmid containing a minimal CYC1 promoter, with a concatemer of five XRE enhancer sequences, linked to eGFP reporter gene and co-expressing ARNT assessed as inhibition of B[a]P agonist induced XRE-driven eGFP expression after 18 hrs by fluorescence assay
As shown below, each of these compounds has a reported IC50 value.
Numeric only. Scale: µM

INSERT INTO results (compound_smiles, recorded_value) VALUES
  ('COc1ccccc1/C=C/C(=O)c1ccc[nH]1', 1.5);

Pending compound:
Ask: Would you mind telling me what IC50 value was observed for O=C(/C=C/c1ccccc1Cl)c1ccc[nH]1 ?
Reply: 7.6

----------
# system: Cytochrome P450 1A1 (Homo sapiens, UniProt P04798)
# Sequence (P04798 whole entry): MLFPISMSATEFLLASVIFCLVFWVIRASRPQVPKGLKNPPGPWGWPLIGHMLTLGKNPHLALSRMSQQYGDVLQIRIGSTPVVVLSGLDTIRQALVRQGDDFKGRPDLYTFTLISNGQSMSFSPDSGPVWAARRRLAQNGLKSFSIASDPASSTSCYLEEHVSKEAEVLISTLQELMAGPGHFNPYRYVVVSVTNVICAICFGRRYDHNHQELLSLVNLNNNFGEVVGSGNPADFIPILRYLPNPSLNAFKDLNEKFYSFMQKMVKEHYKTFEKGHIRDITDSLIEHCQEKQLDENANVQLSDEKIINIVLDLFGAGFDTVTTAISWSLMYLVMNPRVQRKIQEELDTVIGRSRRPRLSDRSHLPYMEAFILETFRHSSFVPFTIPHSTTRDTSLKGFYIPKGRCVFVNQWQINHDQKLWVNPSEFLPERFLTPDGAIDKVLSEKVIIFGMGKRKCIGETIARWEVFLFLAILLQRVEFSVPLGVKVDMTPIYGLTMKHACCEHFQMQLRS
# method: Inhibition of human CYP1A1 expressed in HEK293 cells using fluorogenic substrate 7-ethoxyresorufin as substrate preincubated for 30 mins followed by substrate addition measured for 60 mins by fluorescence assay
# Type: cell-based
pIC50: −log10 of the molar value.
Let's look at some compounds and their measured pIC50.

INSERT INTO measurements (compound_smiles, recorded_value) VALUES
  ('COc1ccccc1/C=C/C(=O)c1ccc[nH]1', 5.92),
  ('O=C(/C=C/c1ccc(OC(F)(F)F)cc1)c1ccc[nH]1', '< 4.70');

Consider the record given below.
Ask: Write down the reported pIC50 of O=C(/C=C/c1ccccc1Cl)c1ccc[nH]1 , test system: Cytochrome P450 1A1 (Homo sapiens, UniProt P04798).
Reply: < 4.70

----------
Entries and their IC50
# system: Cytochrome P450 1A1 (Homo sapiens)
# method: Inhibition of human CYP1A1 bound to yeast microsomal membrane using 7-ethoxyresorufin as substrate after 10 mins by fluorescence assay
Please reply with the bare figure in µM and do not write the unit itself.

In the examples that follow, each entry is paired with its recorded IC50.
INSERT INTO assay_data (compound_smiles, recorded_value) VALUES
  ('COc1cccc(OC)c1/C=C/C(=O)c1ccc[nH]1', 10.8),
  ('COc1ccc(/C=C/C(=O)c2ccc[nH]2)c(OC)c1', 11.8),
  ('COc1cccc(/C=C/C(=O)c2ccc[nH]2)c1OC', 5.2),
  ('O=C(/C=C/c1cccc(Cl)c1)c1ccc[nH]1', 16),
  ('O=C(/C=C/c1ccccc1Cl)c1ccc[nH]1', 9.1),
  ('O=C(/C=C/c1ccc2c(c1)OCO2)c1ccc[nH]1', 5.8),
  ('COc1cc(/C=C/C(=O)c2ccc[nH]2)cc(OC)c1', 6.1);

Turning now to a further record.
Ask: Param item = COc1ccccc1/C=C/C(=O)c1ccc[nH]1 ; retrieve measured IC50.
Reply: 0.9

----------
Listing of entries alongside the reported IC50.
# system: Cytochrome P450 1B1 (Homo sapiens)
# Sequence (Q16678 whole entry): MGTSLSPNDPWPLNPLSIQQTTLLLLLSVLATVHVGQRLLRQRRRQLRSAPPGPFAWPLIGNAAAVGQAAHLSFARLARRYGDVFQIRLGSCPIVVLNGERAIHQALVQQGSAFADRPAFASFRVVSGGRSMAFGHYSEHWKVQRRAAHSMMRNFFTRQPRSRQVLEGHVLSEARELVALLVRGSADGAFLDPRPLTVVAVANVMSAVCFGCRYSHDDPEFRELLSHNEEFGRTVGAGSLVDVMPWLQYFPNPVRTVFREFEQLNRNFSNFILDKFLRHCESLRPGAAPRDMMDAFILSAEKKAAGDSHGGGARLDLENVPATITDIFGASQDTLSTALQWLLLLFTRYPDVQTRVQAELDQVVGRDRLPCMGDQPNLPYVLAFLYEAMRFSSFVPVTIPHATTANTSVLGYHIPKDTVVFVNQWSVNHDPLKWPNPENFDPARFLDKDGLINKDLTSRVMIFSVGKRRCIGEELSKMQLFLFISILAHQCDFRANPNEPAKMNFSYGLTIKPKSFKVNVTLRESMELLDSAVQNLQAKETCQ
# method: Inhibition of human CYP1B1 bound to yeast microsomal membrane using 7-ethoxyresorufin as substrate after 10 mins by fluorescence assay

INSERT INTO measurements (compound_smiles, recorded_value) VALUES
  ('COc1cccc(/C=C/C(=O)c2ccc[nH]2)c1OC', '> 20 µM'),
  ('O=C(/C=C/c1ccc(OC(F)(F)F)cc1)c1ccc[nH]1', '> 20 µM');

Ask: IC50 for CN(C)c1ccc(/C=C/C(=O)c2ccc[nH]2)cc1 ?
Reply: > 20 µM

Ask: I am curious: what IC50 value has been reported for O=C(/C=C/c1cc([N+](=O)[O-])ccc1Cl)c1ccc[nH]1 ?
Reply: > 20 µM

Ask: What value of IC50 has been recorded for this entry: O=C(/C=C/c1ccccc1F)c1ccc[nH]1
Reply: 2.7 µM

Ask: What IC50 value was documented for this compound, COc1cc(/C=C/C(=O)c2ccc[nH]2)cc(OC)c1 ?
Reply: > 20 µM

Ask: Dear colleague, I am looking for the recorded IC50 of the following compound: O=C(/C=C/C=C/c1ccccc1)c1ccc[nH]1
Reply: > 20 µM

Ask: Consider the compound O=C(/C=C/c1ccc2c(c1)OCO2)c1ccc[nH]1 and give its measured IC50.
Reply: > 20 µM

Ask: Consider the compound shown here: O=C(/C=C/c1c2ccccc2cc2ccccc12)c1ccc[nH]1 What is its recorded IC50?
Reply: > 20 µM

Ask: Look at this compound and give its reported IC50. COc1cccc(/C=C/C(=O)c2ccc[nH]2)c1
Reply: 5.2 µM

Just for reference, ChEMBL document CHEMBL4052762 is where these values come from.
